Biological target: Voltage-gated inwardly rectifying potassium channel KCNH2 (Homo sapiens) (UniProt Q12809)
Sequence (Q12809 whole entry, looked up): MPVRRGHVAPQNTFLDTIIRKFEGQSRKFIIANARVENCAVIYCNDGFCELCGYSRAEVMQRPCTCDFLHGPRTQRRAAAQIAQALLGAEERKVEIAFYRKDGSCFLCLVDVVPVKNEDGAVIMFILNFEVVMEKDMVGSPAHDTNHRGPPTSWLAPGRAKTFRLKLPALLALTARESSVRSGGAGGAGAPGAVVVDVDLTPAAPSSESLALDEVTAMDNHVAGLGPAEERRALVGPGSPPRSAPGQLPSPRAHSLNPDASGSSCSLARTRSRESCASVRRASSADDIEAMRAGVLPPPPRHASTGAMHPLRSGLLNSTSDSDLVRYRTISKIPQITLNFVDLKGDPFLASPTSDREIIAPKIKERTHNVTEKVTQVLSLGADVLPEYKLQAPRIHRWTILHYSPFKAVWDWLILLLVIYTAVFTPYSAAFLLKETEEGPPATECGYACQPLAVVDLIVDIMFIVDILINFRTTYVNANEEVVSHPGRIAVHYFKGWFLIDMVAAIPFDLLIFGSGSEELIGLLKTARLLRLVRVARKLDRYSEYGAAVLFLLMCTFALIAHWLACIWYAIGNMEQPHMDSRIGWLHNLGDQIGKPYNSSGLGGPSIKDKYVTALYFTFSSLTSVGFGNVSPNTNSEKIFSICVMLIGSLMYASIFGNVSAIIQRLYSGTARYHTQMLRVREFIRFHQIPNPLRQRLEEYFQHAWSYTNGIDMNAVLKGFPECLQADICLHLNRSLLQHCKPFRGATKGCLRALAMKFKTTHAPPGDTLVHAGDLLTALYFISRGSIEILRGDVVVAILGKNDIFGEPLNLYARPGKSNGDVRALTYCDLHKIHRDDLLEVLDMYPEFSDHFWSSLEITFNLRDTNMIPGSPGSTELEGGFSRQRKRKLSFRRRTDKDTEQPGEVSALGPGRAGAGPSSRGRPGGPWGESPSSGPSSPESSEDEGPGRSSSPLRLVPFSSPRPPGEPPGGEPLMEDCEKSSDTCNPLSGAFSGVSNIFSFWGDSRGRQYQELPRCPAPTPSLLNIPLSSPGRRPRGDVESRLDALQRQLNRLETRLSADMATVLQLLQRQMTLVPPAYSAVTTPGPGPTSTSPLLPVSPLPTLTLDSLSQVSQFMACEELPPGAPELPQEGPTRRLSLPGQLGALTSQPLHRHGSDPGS
Experiment: Human Ether-a-go-go-Related Gene (hERG) channel small molecule antagonists: fluorescence cell-based qHTS assay (AID 1671200); further: nearly all actives have a fitted effect of over 50% in size
Settings: hERG-U2OS cells, FluxOR thallium flux fluorescence; series mostly up to 76.8 µM
Source text: National Center for Advancing Translational Sciences [NCATS] U.S. Environmental Protection Agency [EPA] National Institutes of Environmental Health Sciences [NIEHS] National Toxicology Program [NTP] U.S. Food and Drug Administration [FDA] Mutations in the hERG channel cause Long QT (LQT) syndrome. LQT syndrome is a cardiac disorder which can cause ventricle arrhythmia and sudden death. Additionally, compounds which block the hERG channel can cause acquired LQT syndrome. […]
Results filed as inconclusive are left out. Calls of active or inactive are those of the source. The call rests on the fitted dose curve; in most records, active means well fitted inhibition curve with a large enough effect in the repeat runs; inconclusive means weak or mixed curves; inactive means flat fitted curve, though single readings scatter.
One label from this list, please: active, inactive

1) C[C@]1(Cn2ccnn2)[C@H](C(=O)O)N2C(=O)C[C@H]2S1(=O)=O    inactive
2) Cc1cc(O)ccc1O    inactive
3) O=C1NCCN1CCO    inactive
4) OCCN1CCN(CCCN2c3ccccc3Sc3ccc(Cl)cc32)CC1    active
5) CC(=O)OCC(=O)NCCCOc1cccc(CN2CCCCC2)c1    inactive

IN: Short answer needed: outcome of this test for CCOC(=O)c1ccccc1C(=C1C=C(Br)C(=O)C(Br)=C1)c1cc(Br)c(O)c(Br)c1 ?
OUT: inactive

IN: Short answer needed: outcome of this test for CCC1CO1 (configuration not stated) ?
OUT: inactive

IN: Short answer needed: outcome of this test for O=C(Cn1ccnc1[N+](=O)[O-])NCCO ?
OUT: inactive

IN: Short answer needed: outcome of this test for COC(=O)CCS ?
OUT: inactive

IN: Short answer needed: outcome of this test for C=CCc1ccccc1OCC(O)CNC(C)C (configuration not stated) ?
OUT: inactive

----------
Assay: qHTS assay to identify small molecule agonists of the constitutive androstane receptor (CAR) signaling pathway - cell viability counter screen (AID 1224836); further: nearly all actives have a fitted effect of over 45% in size
Settings: HepG2-CYP2B6-hCAR viability, CellTiter-Fluor, 23 h, PK11195 added to every well; series mostly up to 92.4 µM
Results filed as inconclusive are left out. Activity calls are given as the source filed them. Calls follow the shape of the dose curve; as a rule, active = well fitted cell-killing curve with a large enough effect in the repeat runs; inconclusive = weak or mixed curves, or effect the other way; inactive = flat fitted curve, though single readings scatter.
One label from this list, please: label 1 = active, label 0 = inactive

IN: Short answer needed: outcome of this test for C1C[C@@H]2[C@H]3CC[C@H](C3)[C@@H]2C1 ?
OUT: label 0

IN: Short answer needed: outcome of this test for CCCCCC#CC(=O)OC ?
OUT: label 0

IN: Short answer needed: outcome of this test for CNC(=O)c1cnn(-c2nc(N)c3ncn([C@@H]4O[C@H](CO)[C@@H](O)[C@H]4O)c3n2)c1 ?
OUT: label 0

----------
Molecular target: Nuclear receptor subfamily 1 group I member 3 (Homo sapiens)
Assay: qHTS assay to identify small molecule antagonists of the constitutive androstane receptor (CAR) signaling pathway (AID 1224838);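 further: HepG2 cells stably expressing hCAR with CYP2B6 luciferase reporter stimulated by CITCO; nearly all actives have a fitted effect of over 40% in size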
Conditions: HepG2-CYP2B6-hCAR luciferase, CITCO-stimulated, 24 h; series mostly up to 92.4 µM
Text: U.S. Tox21 Program National Center for Advancing Translational Sciences [NCATS] NIH Chemical Genomics Center [NCGC] U.S. Environmental Protection Agency [EPA] National Institutes of Environmental Health Sciences [NIEHS] National Toxicology Program [NTP] U.S. Food and Drug Administration [FDA] […] Tox21 Assay Protocol Summary: A double-stable (hCAR and CYP2B6-2.2kb) transfected cell line, derived from human hepatoma (HepG2) cells, was utilized for the duration of the quantitative high-throughput screens. […]
Records with an inconclusive call do not appear. Active and inactive are the calls of the source. Calls follow the shape of the dose curve; as a rule, active = well fitted inhibition curve with a large enough effect in the repeat runs; inconclusive = weak or mixed curves, or effect the other way; inactive = no such curve, though single readings can be large or run the other way.
One label from this list, please: Yes (active), No (inactive)

Sample answers from the record:
1. O=C(/C=C/c1ccccc1)OCCc1ccccc1    No
2. O=C(Cn1ccnc1[N+](=O)[O-])NCCO    No
3. C=C1C[C@@]23CC[C@H]4[C@@](C)(CCC[C@@]4(C)C(=O)O[C@@H]4O[C@H](CO)[C@@H](O)[C@H](O)[C@H]4O)[C@@H]2CC[C@]1(O[C@@H]1O[C@H](CO)[C@@H](O)[C@H](O[C@@H]2O[C@H](CO)[C@@H](O)[C@H](O)[C@H]2O)[C@H]1O[C@@H]1O[C@H](CO)[C@@H](O)[C@H](O)[C@H]1O)C3    No
4. Cc1ccc(C(C)(C)O)cc1    No
5. Oc1c(I)cc(I)c2cccnc12    No
6. C[C@@]12CCC[C@H]1[C@@H]1CC[C@H]3C[C@@H](O)CC[C@]3(C)[C@H]1CC2    No

IN: Short answer needed: outcome of this test for CC(C)=CCC/C(C)=C/CC/C(C)=C/C(=O)OCC(=O)[C@@]1(O)CC[C@H]2[C@@H]3CCC4=CC(=O)C=C[C@]4(C)[C@H]3[C@@H](O)C[C@@]21C ?
OUT: No

IN: Short answer needed: outcome of this test for CC1(C)[C@H](C(=O)O)N2C(=O)C[C@H]2S1(=O)=O ?
OUT: No

IN: Short answer needed: outcome of this test for Cc1ccco1 ?
OUT: No

IN: Short answer needed: outcome of this test for C=COCC(C)C ?
OUT: No

IN: Short answer needed: outcome of this test for O=C1c2ccccc2C(=O)C1c1ccc(Br)cc1 ?
OUT: No

----------
Test: qHTS assay to identify small molecule antagonists of the estrogen related receptor signaling pathway with the pleiotropic PPARgamma coactivator (PGC) from Tox21 10K library - cell viability counter screen (AID 1224840); further: nearly all actives have a fitted effect of over 40% in size
Details: PGC/ERR reporter cells viability, CellTiter-Fluor, 17.5 h; series mostly up to 92.4 µM
Records with an inconclusive call do not appear. Active and inactive are the calls of the source. The call rests on the fitted dose curve; in most records, active means well fitted cell-killing curve with a large enough effect in the repeat runs (not every such curve was filed as active); inconclusive means weak or mixed curves, or effect the other way; inactive means no such curve, though single readings can be large or run the other way.
One label from this list, please: active, inactive

Sample answers from the record:
1) c1ccc2c(c1)CCc1ccccc1N2    inactive
2) C=C1c2cccc(O)c2C(O)=C2C(=O)[C@]3(O)C(O)=C(C(N)=O)C(=O)[C@@H](N(C)C)[C@@H]3[C@@H](O)[C@H]12    inactive

Here's the next entry for you.
IN: Short answer needed: outcome of this test for CCc1ccccc1 ?
OUT: inactive

----------
Assay: A CellTox Green Cytotoxicity Assay to monitor cytotoxicity in HepG2 cells - 0 hour (AID 1224882); further: nearly all actives have a fitted effect of over 35% in size
Details: CellTox Green fluorescence; series mostly up to 76.8 µM
Active and inactive are the calls of the source. The call rests on the fitted dose curve; in most records, active means well fitted activation curve with a large enough effect in the repeat runs; inconclusive means weak or mixed curves; inactive means flat fitted curve, though single readings scatter.
One label from this list, please: 1.0 (active), 0.0 (inactive)

Sample answers from the record:
1. c1ccc2sc(SN(C3CCCCC3)C3CCCCC3)nc2c1    0.0
2. CCC(=O)OC    0.0

IN: Short answer needed: outcome of this test for CC(=O)OCC[N+](C)(C)C ?
OUT: 0.0

IN: Short answer needed: outcome of this test for Oc1cc2c(cc1O)[C@H]1c3ccc(O)c(O)c3OC[C@@]1(O)C2 ?
OUT: 0.0

IN: Short answer needed: outcome of this test for O=C(/C=C/c1ccccc1)OCCc1ccccc1 ?
OUT: 0.0

IN: Short answer needed: outcome of this test for Cc1cccc(N(C)C(=S)Oc2ccc3c(c2)CCC3)c1 ?
OUT: 0.0

IN: Short answer needed: outcome of this test for CC(C)=CC(=O)C=C(C)C ?
OUT: 0.0

IN: Short answer needed: outcome of this test for CN1C(=O)N(c2ccccc2Br)Cc2cnc(Nc3ccc4c(c3)OCC(CO)O4)nc21 (configuration not stated) ?
OUT: 0.0

IN: Short answer needed: outcome of this test for C[C@H]1C[C@H](O)c2ccsc2S1(=O)=O ?
OUT: 0.0

IN: Short answer needed: outcome of this test for OC[C@H]1O[C@@H](n2cnc3c(=S)nc[nH]c32)[C@H](O)[C@@H]1O ?
OUT: 0.0

IN: Short answer needed: outcome of this test for CCCCN1CCCC1C(=O)Nc1c(C)cc(C)cc1C (configuration not stated) ?
OUT: 1.0

IN: Short answer needed: outcome of this test for O=[N+]([O-])c1cc(C2CCCCC2)c(O)c([N+](=O)[O-])c1 ?
OUT: 0.0

----------
Assay: qHTS assay to identify small molecule antagonists of the estrogen receptor beta (ER-beta) signaling pathway - cell viability counter screen (AID 1259382); further: nearly all actives have a fitted effect of over 55% in size; further: potency means the concentration at half of the fitted maximal effect
Settings: ER-beta-UAS-bla HEK293T viability, CellTiter-Glo luminescence, 16 h; series mostly up to 92.4 µM
Results filed as inconclusive are left out. Calls of active or inactive are those of the source. The call rests on the fitted dose curve; in most records, active means well fitted cell-killing curve with a large enough effect in the repeat runs; inconclusive means weak or mixed curves; inactive means flat fitted curve, though single readings scatter.
measured metric: Potency

In the examples that follow, each entry is paired with its recorded Potency.
1) CC1(CN2CCC(n3c(=O)[nH]c4ccccc43)CC2)OCc2ccccc2-n2cccc21 (centres undefined)    29.8 µM (active)
2) CC1CC(C)C(=O)C1=O (centres undefined)    inactive
3) CN1C(=O)OC(C)(C)C1=O    inactive
4) CN(C)CCN1C(=O)c2ccccc2N(C)c2ccccc21    inactive
5) O=C(/C=C/c1ccccc1)OCCc1ccccc1    inactive

IN: Potency for C=CC(=O)[O-].C=CC(=O)[O-].[Zn+2] ?
OUT: inactive

IN: Potency for C=COCC(C)C ?
OUT: inactive

IN: Potency for COc1cc(C(=O)NCCCCCC(=O)O)cc(OC)c1OC ?
OUT: inactive

IN: Potency for COc1ncnc(NS(=O)(=O)c2ccc(N)cc2)c1OC ?
OUT: inactive

IN: Potency for CNC(=O)c1cnn(-c2nc(N)c3ncn([C@@H]4O[C@H](CO)[C@@H](O)[C@H]4O)c3n2)c1 ?
OUT: inactive

IN: Potency for CCCCOc1ccc(OCCCN2CCOCC2)cc1 ?
OUT: inactive

IN: Potency for C=C1C[C@@]23CC[C@H]4[C@@](C)(CCC[C@@]4(C)C(=O)O[C@@H]4O[C@H](CO)[C@@H](O)[C@H](O)[C@H]4O)[C@@H]2CC[C@]1(O[C@@H]1O[C@H](CO)[C@@H](O)[C@H](O[C@@H]2O[C@H](CO)[C@@H](O)[C@H](O)[C@H]2O)[C@H]1O[C@@H]1O[C@H](CO)[C@@H](O)[C@H](O)[C@H]1O)C3 ?
OUT: inactive

IN: Potency for CC=C(Cl)Cl ?
OUT: inactive

IN: Potency for CC1CC(OC(=O)C(O)c2ccccc2)CC(C)(C)N1C (centres undefined) ?
OUT: inactive

IN: Potency for CC1(C)S[C@@H]2[C@H](NC(=O)C(c3ccccc3)S(=O)(=O)O)C(=O)N2[C@H]1C(=O)O (some centres undefined) ?
OUT: inactive

IN: Potency for CCCCCCCCCCCCCCN(CCO)CCO ?
OUT: 48.6 µM (active)

IN: Potency for CC(=O)NC1(c2cccc(F)c2)CCN(CC[C@@]2(c3ccc(Cl)c(Cl)c3)CN(c3ccccc3)C(=O)CO2)CC1 ?
OUT: 21.7 µM (active)

IN: Potency for CC1(C)[C@H](C(=O)O)N2C(=O)C[C@H]2S1(=O)=O ?
OUT: inactive

IN: Potency for CC(=O)OCC[N+](C)(C)C ?
OUT: inactive
